Origin of the recorded values: paper PMC9615034

Measurement target: mature dimeric human leukocyte myeloperoxidase (human) (UniProt P05164)
Protocol notes: ITC; 10 μM MPO in the cell, 150 μM SPIN variant as titrant, 19 injections of 3 μl; 50 mM phosphate buffer pH 7.4 or pH 5; one-site binding model
Quantity: Kd
Don't forget the unit after the number, please.

Req: Check the records and state Kd for SPIN-truncated (domain or fragment) LEHELSYIDVLLDKNADQATKDNLRSYFADKGLHSIKDIINKAKQDGFDVSKYEHVK
Resp: 5.9 nM
